Test system: HL-60(TB) leukemia
Experiment: NCI tumour cell line growth inhibition, 48 h
Listed here are molecules together with their documented GI50.

Consider the worked cases shown below.
>>> df
                               entry_smiles       system_tested  observed_result
0  CCOC(=O)/C(C#N)=C\C=C(\Sc1nc2ccccc2s1)c1ccc(Cl)cc1  HL-60(TB) leukemia         24200 nM
1  Cc1oc2c(C(=O)N/N=C\c3ccc(O)cc3O)c[nH]c2c1C  HL-60(TB) leukemia           337 nM
2     C[CH2][Pb]([CH2]C)([CH2]C)[O]C(=O)COC  HL-60(TB) leukemia           634 nM
3  Cc1cc(Cl)ccc1OCc1nn2c(CCCCc3nnc4sc(COc5ccc(Cl)cc5C)nn34)nnc2s1  HL-60(TB) leukemia       > 94200 nM

Proceed to the following item.
Please report GI50 for the following molecule: Cc1ccc(C2=NN(c3ccc(S(C)(=O)=O)cc3)C(=O)CC2)cc1
525 nM
